Data origin: PubChem BioAssay AID770

method: HT29 colon tumor cell growth inhibition, primary screen, imaging, high content imaging, 24 h, CellTiter-Glo (AID 770);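 further: share of cells whose nuclear area falls below control median minus 1.5 SD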
assay-context: HT29 cell number by imaging, measured here: percent cells with condensed nuclei, at 10 µM, stronger effect = higher value
Fewer than 10 of roughly 3,300 compounds were called active. Not all results are given here.
Short version: condensed nuclei at least 5% is Fulfilled, less is Not fulfilled.

Does condensed nuclei meet or surpass 5% for "Cc1c(OCc2ccccc2)c(=O)ccn1Cc1ccccc1" ?
Not fulfilled

Does condensed nuclei meet or surpass 5% for CC(C)CC(C(=O)O)C(C)CC(=O)Nc1ccn(-c2ccccc2)n1 (stereo not given) ?
Fulfilled

Does condensed nuclei meet or surpass 5% for N#C/C(C(=O)NCc1ccco1)=C1/SC(Cc2ccc(F)cc2)C(=O)N1c1ccccc1 (stereo not given) ?
Fulfilled

Does condensed nuclei meet or surpass 5% for "CN1CCN(/C=N/c2sc3c(c2C#N)CCCCC3)CC1" ?
Not fulfilled

Does condensed nuclei meet or surpass 5% for "Cc1cccn2c(=O)c(/C=C(\C#N)S(=O)(=O)c3ccccc3)c(N3CCN(C)CC3)nc12" ?
Not fulfilled

Does condensed nuclei meet or surpass 5% for COc1ccc(/C(O)=C2/C(=O)C(=O)N(c3ncccn3)C2c2ccc(OC)c(OC)c2)cc1 (stereo not given) ?
Not fulfilled

Does condensed nuclei meet or surpass 5% for "Cc1cc(C)n(-c2ncnc3sc(C)c(C)c23)n1" ?
Not fulfilled

Does condensed nuclei meet or surpass 5% for "O=S(=O)(/C=C/c1ccccc1)Nc1ccc2c(c1)OCO2" ?
Not fulfilled

Does condensed nuclei meet or surpass 5% for CCN1C(=O)CC(N2CCN(c3ccc(OC)cc3)CC2)C1=O (stereo not given) ?
Not fulfilled

Does condensed nuclei meet or surpass 5% for O=C1OC(Nc2ccc(Br)cn2)c2ccccc21 (stereo not given) ?
Not fulfilled

Does condensed nuclei meet or surpass 5% for "CCc1nc2sc3c(c2c(=O)o1)CCCC3" ?
Not fulfilled

Does condensed nuclei meet or surpass 5% for N#CC1=C2SCC(O)(c3ccccc3)N2C(=O)CC1c1ccccc1 (stereo not given) ?
Fulfilled

Does condensed nuclei meet or surpass 5% for "COc1cccc(NC(=O)c2cc(C(=O)Nc3cccc(OC)c3)n(C)n2)c1" ?
Fulfilled

Does condensed nuclei meet or surpass 5% for Cc1ccc(N2C(=O)CC(Cn3nc(C)cc3C)C2=O)cc1 (stereo not given) ?
Not fulfilled

Does condensed nuclei meet or surpass 5% for "Cc1cc(C)n(Cc2cc(C)c(Cn3nc(C)cc3C)cc2C)n1" ?
Not fulfilled

Does condensed nuclei meet or surpass 5% for "CCCOc1ccc(Cc2nn[nH]n2)cc1" ?
Not fulfilled

Does condensed nuclei meet or surpass 5% for COc1ccc2c(c1OC)C(=O)N1c3ccccc3SC21 (stereo not given) ?
Not fulfilled

Does condensed nuclei meet or surpass 5% for COc1ccc(C(=O)OC(C)CN2CCN(C)CC2)cc1OC (stereo not given) ?
Fulfilled

Does condensed nuclei meet or surpass 5% for "CC1(C)CC(=O)C=C(NCCO)C1" ?
Not fulfilled

Does condensed nuclei meet or surpass 5% for "Cn1c(SCC(=O)N2CCOCC2)nnc1-c1ccc(Cl)cc1Cl" ?
Not fulfilled

Does condensed nuclei meet or surpass 5% for "Nc1c2c(nc3ccccc13)N(c1ccccc1)CC2" ?
Not fulfilled

Does condensed nuclei meet or surpass 5% for "CC1(C)Cc2c(c(N3CCOCC3)nc3sc(C#N)c(N)c23)CS1" ?
Fulfilled

Does condensed nuclei meet or surpass 5% for COc1ccc(OC)c(C2/C(=C(\O)c3ccc(OC)c(Cl)c3)C(=O)C(=O)N2CCN(C)C)c1 (stereo not given) ?
Not fulfilled

Does condensed nuclei meet or surpass 5% for "CCN(CC)CCNc1nc(-c2ccco2)c2c(c1C#N)CC(C)(C)OC2" ?
Not fulfilled
